Source: PubChem BioAssay (NCI)

system: RPMI-8226 leukemia; assay: NCI-60 one-dose screen, 48 h; conditions: 10 µM unless noted
Compounds without any hit were thinned out: in the full panel of roughly 83,000, 20% have a hit. Calls of active or inactive are those of the source. How the source made its calls: active means growth percent below 10; inactive means the rest.
In this exercise, the only acceptable responses are active, inactive

smiles-repr: C#CC#CC#CC#CC#CC#CC#CC#CC[C@H]1OC[C@@H](COC(=O)O[C@@H](C(=O)O[C@H]2C[C@@]3(O)[C@@H](OC(=O)c4ccccc4)[C@@H]4[C@]5(OC(C)=O)CO[C@@H]5C[C@H](O)[C@@]4(C)C(=O)[C@H](OC(C)=O)C(=C2C)C3(C)C)[C@@H](NC(=O)c2ccccc2)c2ccccc2)O1
tgt: RPMI-8226 leukemia
category: inactive

smiles-repr: CN(C)Cc1ccc(C(=O)Nc2ccc3ncnc(Nc4ccc(Oc5cccc(F)c5)c(Cl)c4)c3c2)cc1
tgt: RPMI-8226 leukemia
category: active

Pending compound:
Input: Call for entry `C#CCOc1ccc2ncnc(Nc3cccc(NC(=O)CCl)c3)c2c1` :
Output: inactive

###

system: U251 CNS; assay: NCI-60 one-dose screen, 48 h; conditions: 10 µM unless noted
About 83,000 compounds went through this panel and 20% of them were active in at least one assay; those are over-represented in the sample as a whole. Active and inactive are the calls of the source. How the source made its calls: active means growth percent below 10; inactive means the rest.
In this exercise, the only acceptable responses are active, inactive

Reference set, count: 3
molecule: COc1ccc(/C=C/C(=O)c2cc3c(N)c(C(=O)Nc4ccccc4C)sc3nc2C)cc1
category: active

molecule: COc1ccc2cc(Cn3cc[n+](Cc4ccc5ccccc5c4)c3)ccc2c1
category: inactive

molecule: COc1ccccc1NC(=O)c1ccc(/C=C/C(=O)c2nccn2C)cc1
category: active

Input: Call for entry `COc1ccccc1-n1c(-c2cc(O)ccc2C)cn2c3c(=O)[nH]c(=O)n(C)c3nc12` :
Output: inactive

Input: Call for entry `O=C(CCCCCCN1CC(=O)N2[C@@H](c3ccc(Cl)cc3)c3[nH]c4ccccc4c3C[C@H]2C1=O)NO` :
Output: inactive

Input: Call for entry `CCN(CC)S(=O)(=O)c1ccc(S(=O)(=O)N2CCC[C@@H](C(=O)N3CCN(C(=O)OC(C)(C)C)CC3)C2)cc1` :
Output: inactive

Input: Call for entry `CN1CCN(c2ccc3c(c2)nc(NNC(=O)c2cnccn2)c2cccn23)CC1` :
Output: inactive

###

system: DU-145 prostate; assay: NCI-60 one-dose screen, 48 h (100 = growth as untreated, 0 = no growth, -100 = all killed); conditions: 10 µM unless noted
Compounds without any hit were thinned out: in the full panel of roughly 83,000, 20% have a hit.
Label MET when growth < 50%; otherwise NOT MET.

Reference set, count: 6
molecule: N=C(N)c1ccc(-c2ccc(-c3ccc(Cl)cc3Cl)s2)cc1F
category: MET
//
molecule: CCCCCSB(SCCCCC)c1ccccc1
category: NOT MET
//
molecule: NC(=S)N/N=C/c1cn(-c2ccccc2)nc1-c1cc2ccccc2oc1=O
category: NOT MET
//
molecule: O=C(CN1C(=O)/C(=C/c2ccco2)SC1=S)NCCc1c[nH]c2ccc(F)cc12
category: NOT MET
//
molecule: CCCCCCCCCCCCCCCCCCOc1ccccc1CC(=O)OCC[N+]1(C)CCOCC1
category: NOT MET
//
molecule: O=C(CCl)Nc1ccc2c(Nc3cc(O)ccc3Cl)ncnc2c1
category: MET

Input: Lab note: confirm whether the reported growth for this molecule is below 50%, equality not counting. molecule: CCC(C)Nc1ccc(NC(C)CC)cc1 (centres undefined)
Output: NOT MET

###

tested on: UACC-62 melanoma; assay: NCI-60 one-dose screen, 48 h (100 = growth as untreated, 0 = no growth, -100 = all killed); settings: 10 µM unless noted
The panel holds about 83,000 compounds, 20% with a hit somewhere; the sample as a whole holds those more often.
Criterion: growth meeting or surpassing 70%. Met: MET. Not met: NOT MET.

compound: CC[C@@H](c1ccc2cc(OC)ccc2c1)C(C)(C)C(=O)F
tgt: UACC-62 melanoma
category: MET

compound: CCN(CC)CCCNCc1cc(-c2ccccc2)nc2cc(Cl)ccc12
tgt: UACC-62 melanoma
category: NOT MET

compound: C=CCn1c(SCC(=O)Nc2ccc(C(=O)/C=C/c3cc(OC)c(OC)c(OC)c3)cc2)nnc1-c1cc(-c2ccc(OC)cc2)nc2ccccc12
tgt: UACC-62 melanoma
category: MET

compound: O=C1c2cc3c(cc2-c2c1c1ccc(Cl)cc1c(=O)n2C[C@H](O)CO)OCO3
tgt: UACC-62 melanoma
category: NOT MET

compound: CCN(CC)CCOc1nc2c3ccc(Cl)cc3nn2c2ccccc12
tgt: UACC-62 melanoma
category: NOT MET

compound: C#CC#CC#CC#CC#CC#CC#CC#CCC1OCC(COC(=O)O[C@@H](C(=O)O[C@H]2C[C@@]3(O)[C@@H](OC(=O)c4ccccc4)[C@@H]4[C@]5(OC(C)=O)CO[C@@H]5C[C@H](O)[C@@]4(C)C(=O)[C@H](OC(C)=O)C(=C2C)C3(C)C)[C@@H](NC(=O)c2ccccc2)c2ccccc2)O1 (some centres not stated)
tgt: UACC-62 melanoma
category: NOT MET

compound: CCCCCCCCn1ccc2cc(NC(=O)Cn3cc(CN4CCCCCC4)nn3)ccc21
tgt: UACC-62 melanoma
category: NOT MET

compound: CC(C)=CC(=O)N[C@@H]1CC2CCC3C(CC[C@@]4(C)C3CC[C@@H]4C(C)N(C)C)[C@@]2(C)C[C@@H]1O (some centres not stated)
tgt: UACC-62 melanoma
category: NOT MET

compound: CCCCCCCC/C=C\CCCCCCCCOc1ccccc1CC(=O)NCC[N+]1(C)CCCCC1
tgt: UACC-62 melanoma
category: NOT MET

compound: COc1cc(-c2nc3ccc(C)cc3[nH]2)ccc1OCC(=O)N=Nc1c(O)[nH]c2ccc(Cl)cc12
tgt: UACC-62 melanoma
category: NOT MET

Input: growth >= 70% for `C=CCn1c(SCC(=O)Nc2ccc(C(=O)/C=C/c3ccc(OC)cc3)cc2)nnc1-c1ccccc1` ?
Output: MET

Input: growth >= 70% for `CCCn1c(=S)sc2c1nc(C)n1c(Nc3ccccc3)nnc21` ?
Output: NOT MET

Input: growth >= 70% for `COc1ccc(C/C(C)=C(\c2ccc(O)cc2)c2ccc(OCCN3CCCC3)cc2)cc1` ?
Output: MET

Input: growth >= 70% for `CN1C(=O)/C(=C/c2ccc(C(=O)Nc3ncc(Cc4ccc(F)cc4)s3)cc2)SC1=S` ?
Output: NOT MET

Input: growth >= 70% for `COc1ccc2nc3ccccc3c(NCc3ccc(F)cc3)c2c1` ?
Output: NOT MET

Input: growth >= 70% for `N#Cc1c(-c2cccc([N+](=O)[O-])c2)cc(-c2ccc(Nc3nc(Nc4ccc(F)cc4)nc(Nc4ccc(F)cc4)n3)cc2)nc1N` ?
Output: MET

###

system: HT29 colon; test: NCI-60 one-dose screen, 48 h (100 = growth as untreated, 0 = no growth, -100 = all killed); details: 10 µM unless noted
About 83,000 compounds went through this panel and 20% of them were active in at least one assay; those are over-represented in the sample as a whole. Calls of active or inactive are those of the source. How the source made its calls: active means growth percent below 10; inactive means the rest.
readout-name: growth

Solved cases (5 shown):
compound: CCN(CC)CCNC(=O)c1ccc(-c2nc3ccc4[nH]ncc4c3c3c2CCCC3)cc1
tgt: HT29 colon
growth: 68.3% (inactive)

compound: CC(C)CN1CC(C(=O)Nc2ccc3c(c2)-c2ccccc2C3)CC1=O (stereo not drawn)
tgt: HT29 colon
growth: 87.8% [50 µM] (inactive)

compound: COc1ccc(-c2oc(=O)ccc2-c2cc(OC)c(OC)c(OC)c2)cc1O
tgt: HT29 colon
growth: 3.93% (active)

compound: COP(=O)(OC)c1nnn(-c2cccc([N+](=O)[O-])c2)c1C
tgt: HT29 colon
growth: 105% (inactive)

compound: c1ccc2cc(Cn3c[n+](Cc4ccc5ccccc5c4)c4ccccc43)ccc2c1
tgt: HT29 colon
growth: -80.6% (active)

Input: What growth value was documented for this compound, `C[C@@H]1CC[C@@]2(OC1)O[C@H]1C[C@H]3[C@@H]4CC=C5C[C@@H](O[C@@H]6O[C@H](CO)[C@@H](O[C@@H]7O[C@@H](CO)[C@H](O)[C@H]7O)[C@H](O)[C@H]6O[C@@H]6O[C@@H](C)[C@H](O)[C@@H](O)[C@H]6O)CC[C@]5(C)[C@H]4CC[C@]3(C)[C@H]1[C@@H]2C` ?
Output: -61.2% (active)

Input: What growth value was documented for this compound, `CCn1cc(C(=O)NN=C2CCCCCC2)c(=O)c2ccc(C)nc21` ?
Output: 99.7% (inactive)

Input: What growth value was documented for this compound, C[Se]C(=O)CC1=C2C=C(F)C=CC2/C(=C\c2ccc(S(C)=O)cc2)C1C (stereo not drawn) ?
Output: 13.8% (inactive)
